// provenance: patent US12692294B2

molecular target: T1, ErbB4 (Rattus norvegicus, UniProt Q62956); test: In vitro phosphorylation of Akt in neonatal rat cardiomyocytes; assay type: cell-based; conditions: top value of the Akt phosphorylation data points in cardiomyocytes; wild-type control 100
T1 construct: forming the ErbB2/ErbB4 complex in cardiomyocytes and the ErbB2/ErbB3 complex in Schwann cells; endogenous in cells; host or cells: primary neonatal rat cardiomyocytes (Sprague Dawley pups, 0 to 4 days old)
T1 sequence (Q62956 26-1308): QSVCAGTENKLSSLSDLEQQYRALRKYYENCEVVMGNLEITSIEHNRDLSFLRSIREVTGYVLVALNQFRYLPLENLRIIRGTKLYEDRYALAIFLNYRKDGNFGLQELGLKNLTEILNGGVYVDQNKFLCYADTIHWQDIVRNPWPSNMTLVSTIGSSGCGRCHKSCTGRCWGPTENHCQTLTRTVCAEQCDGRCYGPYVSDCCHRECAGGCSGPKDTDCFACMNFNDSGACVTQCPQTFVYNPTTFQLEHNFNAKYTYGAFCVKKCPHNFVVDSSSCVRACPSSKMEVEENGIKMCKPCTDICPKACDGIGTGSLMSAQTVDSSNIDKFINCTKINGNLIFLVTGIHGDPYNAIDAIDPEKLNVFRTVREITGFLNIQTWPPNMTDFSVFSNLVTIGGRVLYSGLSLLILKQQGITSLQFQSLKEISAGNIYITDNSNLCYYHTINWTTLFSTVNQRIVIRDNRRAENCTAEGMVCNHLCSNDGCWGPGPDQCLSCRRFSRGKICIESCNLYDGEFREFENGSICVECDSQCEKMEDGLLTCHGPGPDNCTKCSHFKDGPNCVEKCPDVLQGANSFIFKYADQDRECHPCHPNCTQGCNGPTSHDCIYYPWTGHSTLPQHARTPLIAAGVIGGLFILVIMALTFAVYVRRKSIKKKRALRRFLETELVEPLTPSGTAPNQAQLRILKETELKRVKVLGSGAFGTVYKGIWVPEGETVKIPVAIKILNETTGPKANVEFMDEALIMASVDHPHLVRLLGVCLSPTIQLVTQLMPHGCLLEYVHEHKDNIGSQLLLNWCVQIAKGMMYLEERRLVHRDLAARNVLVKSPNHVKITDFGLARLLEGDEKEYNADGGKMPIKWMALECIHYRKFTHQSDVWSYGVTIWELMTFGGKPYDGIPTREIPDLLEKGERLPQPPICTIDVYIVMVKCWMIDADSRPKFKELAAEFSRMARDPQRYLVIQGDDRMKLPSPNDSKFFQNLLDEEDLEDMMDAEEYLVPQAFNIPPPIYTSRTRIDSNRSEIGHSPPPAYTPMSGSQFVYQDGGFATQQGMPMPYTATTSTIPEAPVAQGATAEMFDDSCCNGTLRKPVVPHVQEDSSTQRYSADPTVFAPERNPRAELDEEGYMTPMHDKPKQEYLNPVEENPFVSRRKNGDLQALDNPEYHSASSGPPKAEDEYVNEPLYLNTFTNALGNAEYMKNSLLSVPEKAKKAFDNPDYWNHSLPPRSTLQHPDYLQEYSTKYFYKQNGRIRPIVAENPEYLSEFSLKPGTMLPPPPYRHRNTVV
T1 sequence (P06494 23-1257 partner): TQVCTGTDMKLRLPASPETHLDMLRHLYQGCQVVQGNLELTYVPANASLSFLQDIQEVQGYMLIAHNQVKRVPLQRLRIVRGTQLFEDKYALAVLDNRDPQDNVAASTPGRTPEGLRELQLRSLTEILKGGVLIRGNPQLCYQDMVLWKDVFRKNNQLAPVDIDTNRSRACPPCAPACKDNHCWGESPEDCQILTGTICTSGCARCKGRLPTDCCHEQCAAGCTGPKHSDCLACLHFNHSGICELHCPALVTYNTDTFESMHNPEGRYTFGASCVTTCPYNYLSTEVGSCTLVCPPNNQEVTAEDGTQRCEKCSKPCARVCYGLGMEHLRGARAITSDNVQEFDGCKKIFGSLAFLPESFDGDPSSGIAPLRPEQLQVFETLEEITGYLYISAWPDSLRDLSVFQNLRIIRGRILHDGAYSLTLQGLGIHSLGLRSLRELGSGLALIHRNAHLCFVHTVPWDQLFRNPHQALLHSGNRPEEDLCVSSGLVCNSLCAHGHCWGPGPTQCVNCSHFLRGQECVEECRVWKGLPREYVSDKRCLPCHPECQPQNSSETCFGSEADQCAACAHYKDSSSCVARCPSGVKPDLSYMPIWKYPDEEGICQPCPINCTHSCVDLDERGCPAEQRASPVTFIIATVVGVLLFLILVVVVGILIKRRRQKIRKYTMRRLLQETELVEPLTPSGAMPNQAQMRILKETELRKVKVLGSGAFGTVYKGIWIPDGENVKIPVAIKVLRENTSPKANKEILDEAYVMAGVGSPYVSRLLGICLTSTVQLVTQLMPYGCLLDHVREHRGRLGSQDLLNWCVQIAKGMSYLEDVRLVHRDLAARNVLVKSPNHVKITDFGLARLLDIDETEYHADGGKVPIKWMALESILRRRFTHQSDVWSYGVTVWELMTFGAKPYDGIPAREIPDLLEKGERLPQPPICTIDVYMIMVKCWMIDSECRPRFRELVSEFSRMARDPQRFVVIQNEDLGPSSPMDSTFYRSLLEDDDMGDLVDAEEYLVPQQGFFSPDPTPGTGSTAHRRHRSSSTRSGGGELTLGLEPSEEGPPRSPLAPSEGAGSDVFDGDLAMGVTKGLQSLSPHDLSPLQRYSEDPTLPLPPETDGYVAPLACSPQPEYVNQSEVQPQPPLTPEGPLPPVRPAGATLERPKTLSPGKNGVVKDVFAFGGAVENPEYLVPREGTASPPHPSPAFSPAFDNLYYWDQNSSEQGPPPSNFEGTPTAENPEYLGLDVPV

{"columns": ["molecule", "CM % Agonism AVG [%]"],
 "data": [
  ["huNRG1(S177-F229)(NRGE1D) (E47T_D48S_F49L_M50L) 6xHis: 6xHis-tagged NRG1 variant SEQ ID NO:129 (protein, 6xHis tag; huNRG1(S177-F229)(NRGE1D) (E47T_D48S_F49L_M50L) 6xHis) SHLVKCGESHKSFCVNGGECYMVEGSSIPSRYLCKCPNEFTGDRCQTSLLASFGGGGEGGGGAGGGGHHHHHH", 99.83],
  ["huNRG1(S177-F229) 6xHis: 6xHis-tagged NRG1 fragment S177-F229 without variant mutations (protein, 6xHis tag; huNRG1(S177-F229) 6xHis, 6xHis-tagged NRG1 fragment S177-F229 without variant mutations) SHLVKCAEKEKTFCVNGGECFMVKDLSNPSRYLCKCPNEFTGDRCQNYVMASFGGGGEGGGGAGGGGHHHHHH", 97.51],
  ["huNRG1(S177-F229)(NRGE1D) (E47K_D48L_F49D_M50I) 6xHis: 6xHis-tagged NRG1 variant SEQ ID NO:127 (protein, 6xHis tag; huNRG1(S177-F229)(NRGE1D) (E47K_D48L_F49D_M50I) 6xHis) SHLVKCGESHKSFCVNGGECYMVEGSSIPSRYLCKCPNEFTGDRCQKLDIASFGGGGEGGGGAGGGGHHHHHH", 91.65]
]}
